# PROTOCOL: in vitro
# ASSAY SETUP: human, SVG-A cells infected with JC polyomavirus M1/SVEdelta
# Description: Therapeutic index, ratio of TC50 for JC polyomavirus M1/SVEdelta infected human SVG-A cells to EC50 for JC polyomavirus M1/SVEdelta

- COMPOUND: "O=C(O)c1ccccc1Nc1cccc(C(F)(F)F)c1"
  selectivity ratio: "> 3"
- COMPOUND: "CC(C)c1ccc2c(c1)CC[C@H]1[C@](C)(C(N)=O)CCC[C@]21C [DEHYDROABIETAMIDE]"
  selectivity ratio: "> 2"
- COMPOUND: "CC(=O)O[C@H]1C[C@@]2(C)[C@@H](C[C@@H](O)[C@H]3[C@@]4(C)CC[C@@H](O)[C@@H](C)[C@@H]4CC[C@@]32C)/C1=C(\\CCC=C(C)C)C(=O)O"
  selectivity ratio: "> 2"
- COMPOUND: "Cc1nccc2c1[nH]c1ccccc12"
  selectivity ratio: "> 2"
- COMPOUND: "COc1cc(C)c(C(=O)Oc2cc(C)c(C(=O)O)c(O)c2C)c(OC)c1C"
  selectivity ratio: "> 2"
- COMPOUND: "CCC(=O)Nc1ccc(Cl)c(Cl)c1"
  selectivity ratio: "> 2"

###

# Test system: JC polyomavirus
# PROTOCOL: microbe, parasite or virus in culture
# Format: functional, cell-based
# ASSAY SETUP: M1/SVEdelta, SVG-A, 72 h
# Description: Antiviral activity against JC polyomavirus M1/SVEdelta infected in human SVG-A cells assessed as inhibition of viral replication after 3 days

- MOLECULE: "OC(c1cc(C(F)(F)F)nc2c(C(F)(F)F)cccc12)C1CCCCN1 (stereo unspecified)"
  IC50 (µM): 3.9

###

# System: JC polyomavirus
# PROTOCOL: Antiviral activity against JC polyomavirus Mad4 infected in human SVG-A cells assessed as inhibition of viral replication after 3 days
# Format: functional, cell-based
# ASSAY SETUP: 72 h
pIC50: −log10 of the molar value.

- COMPOUND: "OC(c1cc(C(F)(F)F)nc2c(C(F)(F)F)cccc12)C1CCCCN1 (stereo unspecified) [MEFLOQUINE]"
  TARGET DESC: "JC polyomavirus"
  pIC50: 5.40

###

# PROTOCOL: in vitro
# ASSAY SETUP: human, SVG-A cells infected with JC polyomavirus M1/SVEdelta

- MOLECULE: "O=C(O)Cc1ccccc1Nc1c(Cl)cccc1Cl [DICLOFENAC SODIUM]"
  selectivity ratio: "> 2"
- MOLECULE: "Cc1c(Nc2ncccc2C(=O)O)cccc1C(F)(F)F"
  selectivity ratio: "> 2"
- MOLECULE: "O=c1c2ccccc2oc2ccccc12"
  selectivity ratio: "> 2"
- MOLECULE: "Cc1cccc(Nc2ccccc2C(=O)O)c1C"
  selectivity ratio: "> 2"
- MOLECULE: "Cc1c(Cl)cccc1Nc1ccccc1C(=O)O"
  selectivity ratio: "> 3"

###

# PROTOCOL: in vitro
# ASSAY SETUP: human, svg-a
# Description: Cytotoxicity against human SVG-A cells
ENDPOINT NAME: CC50 (µM)

- COMPOUND: "Clc1ccc(COC(Cn2ccnc2)c2ccc(Cl)cc2Cl)c(Cl)c1 (configuration not stated) [MICONAZOLE NITRATE]"
  ENDPOINT NAME: "CC50"
  RECORDED NUMBER: 22.9
- COMPOUND: "OC(c1cc(C(F)(F)F)nc2c(C(F)(F)F)cccc12)C1CCCCN1 (configuration not stated) [MEFLOQUINE]"
  ENDPOINT NAME: "CC50"
  RECORDED NUMBER: 16.1

###

# Tested on: Plasma
# PROTOCOL: Drug concentration in human plasma
# Assay type: ADME, cell-free
# ASSAY SETUP: read-out: Drug uptake
Counter-ions that a name gives are not always drawn.
ENDPOINT NAME: log10(concentration) (log10 of the value in µM)

- MOLECULE: "Cc1cccc(Nc2ccccc2C(=O)O)c1C [MEFENAMIC ACID]"
  RECORDED NUMBER: 1.60
- MOLECULE: "OC(c1cc(C(F)(F)F)nc2c(C(F)(F)F)cccc12)C1CCCCN1 (stereo unspecified) [MEFLOQUINE]"
  RECORDED NUMBER: 0.78
- MOLECULE: "COc1ccc([C@@H]2Sc3ccccc3N(CCN(C)C)C(=O)[C@@H]2OC(C)=O)cc1 [DILTIAZEM HYDROCHLORIDE]"
  RECORDED NUMBER: -0.30
- MOLECULE: "CC(=O)O[C@H]1C[C@@]2(C)[C@@H](C[C@@H](O)[C@H]3[C@@]4(C)CC[C@@H](O)[C@@H](C)[C@@H]4CC[C@@]32C)/C1=C(\\CCC=C(C)C)C(=O)O [FUSIDIC ACID]"
  RECORDED NUMBER: 1.28
- MOLECULE: "O=C(O)Cc1ccccc1Nc1c(Cl)cccc1Cl [DICLOFENAC SODIUM]"
  RECORDED NUMBER: 0.90
- MOLECULE: "CC1=C(/C=C/C(C)=C/C=C/C(C)=C\\C(=O)O)C(C)(C)CCC1 [ISOTRETINOIN]"
  RECORDED NUMBER: 1.38
